Target: cDNA-expressed human hepatic CYP3A4 (Homo sapiens (Human))
Sequence (P08684 whole entry): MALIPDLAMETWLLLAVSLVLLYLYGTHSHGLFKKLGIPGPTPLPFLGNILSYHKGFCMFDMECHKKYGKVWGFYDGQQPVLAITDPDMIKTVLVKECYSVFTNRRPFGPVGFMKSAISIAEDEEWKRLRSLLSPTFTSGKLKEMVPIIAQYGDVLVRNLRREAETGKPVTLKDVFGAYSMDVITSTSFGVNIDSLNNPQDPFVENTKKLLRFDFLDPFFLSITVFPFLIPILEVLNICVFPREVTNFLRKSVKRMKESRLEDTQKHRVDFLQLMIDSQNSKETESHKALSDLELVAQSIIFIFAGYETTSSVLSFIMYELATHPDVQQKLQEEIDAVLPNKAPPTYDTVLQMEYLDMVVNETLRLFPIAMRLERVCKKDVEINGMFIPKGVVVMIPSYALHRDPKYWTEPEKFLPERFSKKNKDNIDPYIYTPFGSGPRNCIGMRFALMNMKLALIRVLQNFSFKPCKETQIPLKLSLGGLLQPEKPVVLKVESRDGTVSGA
Assay: Measurement of CYP (IC50 of P450 CYP3A4), BFC substrate
Assay type: in vitro ADME
Settings: 20 minutes
Kindly supply the reported IC50 values for the records listed here.
Write down the numeric answer in µM and omit the unit.

Per the records, this molecule ( C=CCN1CC(=O)N2C(Cc3ccc(O)cc3)C(=O)N(Cc3cccc4c(C(=O)Nc5ccc(N6CCC(O)CC6)nc5)cn(C)c34)CC2N1C(=O)NCc1ccccc1 (centres unmarked) ) has IC50 equal to 6.95

Per the records, this molecule ( C=CCN1CC(=O)N2[C@@H](Cc3ccc(O)cc3)C(=O)N(Cc3cccc4c(C(=O)N5CCN(C)CC5)cn(C)c34)C[C@@H]2N1C(=O)NCc1ccccc1 ) has IC50 equal to 12.2

Per the records, this molecule ( C=CCN1CC(=O)N2[C@@H](Cc3ccc(O)cc3)C(=O)N(Cc3cccc4c(C(=O)Nc5ccc(OCCCN(C)C)nc5)cn(C)c34)C[C@@H]2N1C(=O)NCc1ccccc1 ) has IC50 equal to 13

###

Kindly supply the reported GI50 values for the records listed here.
System: MV-4-11 (human, Acute Myeloid Leukemia cell line) cells
Assay: Cell growth inhibition assay, GI50 of MV-4-11
Assay type: cell-based
Details: Homo sapiens, MV4-11, 72 h, MV-4-11 cells
Write down the numeric answer in nM and omit the unit.

Entry C=CCN1CC(=O)N2[C@@H](Cc3ccc(O)cc3)C(=O)N(Cc3cccc4c(C(=O)N5CCN(CC)CC5)cn(C)c34)C[C@@H]2N1C(=O)NCc1ccccc1 ; assay system MV-4-11 (human, Acute Myeloid Leukemia cell line) cells; GI50 recorded at 11.6

Entry C=CCN1CC(=O)N2C(CN(Cc3cccc4c(C(=O)Nc5ccc(N6CCN(C)CC6)nc5)cn(C)c34)C(=O)[C@@H]2Cc2ccc(O)cc2)N1C(=O)NCc1ccccc1 (stereo partly shown) ; assay system MV-4-11 (human, Acute Myeloid Leukemia cell line) cells; GI50 recorded at 1.3

Entry C=CCN1CC(=O)N2[C@@H](Cc3ccc(O)cc3)C(=O)N(Cc3cccc4c(-c5ccc(NC(=O)N6CCOCC6)cc5)cn(C)c34)C[C@@H]2N1C(=O)NCc1ccccc1 ; assay system MV-4-11 (human, Acute Myeloid Leukemia cell line) cells; GI50 recorded at 1.2

Entry C=CCN1CC(=O)N2[C@@H](Cc3ccc(O)cc3)C(=O)N(Cc3cccc4c(C(=O)Nc5ccc(N6CC7CCN(C)C7C6)nc5)cn(C)c34)C[C@@H]2N1C(=O)NCc1ccccc1 (stereo partly shown) ; assay system MV-4-11 (human, Acute Myeloid Leukemia cell line) cells; GI50 recorded at 1.3

Entry C=CCN1CC(=O)N2[C@@H](Cc3ccc(O)cc3)C(=O)N(Cc3cccc4c(-c5cccc(C(=O)N6CCC(O)CC6)c5)cn(C)c34)C[C@@H]2N1C(=O)NCc1ccccc1 ; assay system MV-4-11 (human, Acute Myeloid Leukemia cell line) cells; GI50 recorded at 1.7

Entry C=CCN1CC(=O)N2[C@@H](Cc3ccc(O)cc3)C(=O)N(Cc3cccc4c(-c5ccc(C(=O)NCc6ccccc6)cc5)cn(C)c34)C[C@@H]2N1C(=O)NCc1ccccc1 ; assay system MV-4-11 (human, Acute Myeloid Leukemia cell line) cells; GI50 recorded at 4.3

Entry C=CCN1CC(=O)N2[C@@H](Cc3ccc(O)cc3)C(=O)N(Cc3cccc4c(-c5ccc(NC(=O)Nc6ccccc6)nc5)cn(C)c34)C[C@@H]2N1C(=O)NCc1ccccc1 [Compound C] ; assay system MV-4-11 (human, Acute Myeloid Leukemia cell line) cells; GI50 recorded at 9.5

Entry C=CCN1CC(=O)N2[C@@H](Cc3ccc(O)cc3)C(=O)N(Cc3cccc4c(-c5ccc(C(=O)NN6CCOCC6)cc5)cn(C)c34)C[C@@H]2N1C(=O)NCc1ccccc1 ; assay system MV-4-11 (human, Acute Myeloid Leukemia cell line) cells; GI50 recorded at 1.2

Entry C=CCN1CC(=O)N2[C@@H](Cc3ccc(O)cc3)C(=O)N(Cc3cccc4c(-c5ccc(NC(=O)N6CCN(S(C)(=O)=O)CC6)nc5)cn(C)c34)C[C@@H]2N1C(=O)NCc1ccccc1 ; assay system MV-4-11 (human, Acute Myeloid Leukemia cell line) cells; GI50 recorded at 2.2

Entry C=CCN1CC(=O)N2C(Cc3ccc(O)cc3)C(=O)N(Cc3cccc4c(C(=O)Nc5ccc(N6CCN(Cc7ccc(OC)cc7)CC6)nc5)cn(C)c34)CC2N1C(=O)NCc1ccccc1 (stereo not shown) ; assay system MV-4-11 (human, Acute Myeloid Leukemia cell line) cells; GI50 recorded at 6.5
